Kd values by entry
Molecular target: T1, recombinant human Trop-2-his protein (ACCESSION NO.: NP_002344.2, AA 1-274) (human, UniProt P09758 27-274)
T1 construct: range 27-274; also called recombinant human Trop-2 protein; recombinant human Trop-2 extracellular domain; not shown: his tag
T1 sequence (looked up): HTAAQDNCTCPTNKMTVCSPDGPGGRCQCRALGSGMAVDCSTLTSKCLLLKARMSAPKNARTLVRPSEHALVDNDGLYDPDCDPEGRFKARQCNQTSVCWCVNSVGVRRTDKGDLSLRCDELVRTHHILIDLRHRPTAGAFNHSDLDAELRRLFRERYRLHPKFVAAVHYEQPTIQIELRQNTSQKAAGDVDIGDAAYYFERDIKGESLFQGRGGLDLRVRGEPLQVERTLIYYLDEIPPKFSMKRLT
Assay: BLI, SN38-labeled antibody on AHC sensor, Trop-2-his 60 nM, 300 s binding
Description: Affinities of the antibodies were determined by an assay including capturing Fc fragments of the antibodies with anti-human IgG Fc capture (AHC) biosensors using Octet QKe system instrument from Fortebio. […]
Express the result in nM but write the number alone.

Previously resolved entries follow.
[[record]]
binder = "ch4-3-SN38 (antibody, V domains shown, CL2A-SN-38 conjugated to the DTT-reduced antibody; 7.5 SN38 per antibody; sites not stated, also called ch4-3 labeled with SN38) VH: QVQLQQSGPELVKPGASVKMSCKASGFTFTDYVIGWVKQRTGQGLEWIGEIYLGSGTIYYTEKFKGKATLTADTSSNTAYMQLSSLTSEDSAVYFCARGSIFPFDYWGQGTTLTVSS VL: QIVLTQSPAIMSASPGEKVTMTCSASSSVSYMYWYQQKPGSSPRLLIYDTSTLASGVPVRFSGSGSGTSYSLTISRMEAEDAATYYCQQWSSYPYTFGGGTKLEIK"
readout_label = "Kd"
units_of_measure = "nM"
recorded_measurement = 0.177

[[record]]
binder = "ch11-4-SN38 (antibody, V domains shown, CL2A-SN-38 conjugated to the DTT-reduced antibody; 7.5 SN38 per antibody; sites not stated, also called ch11-4 labeled with SN38) VH: QVQLQQPGAELVRPGASVNLSCKASGYTFTSYWINWVKQRPGQGLEWIGNIYPSNSYTNYNQKFKDTATLTVDKSSSTAYMQLSSPTSEDSAVYFCSSYRSDGFAYWGQGTLVTVSA VL: DILLTQSPAILSVSPGEKVSFSCRASQNIGTSIHWYQQRTNGSPRLLIEFASESISGIPSRFSGSGSGTDFTLTINSVESEDIADYYCQQSNSWPFTFGGGTKLEIK"
readout_label = "Kd"
units_of_measure = "nM"
recorded_measurement = 0.0734

[[record]]
binder = "h23-12-SN38 (antibody, human IgG1, kappa, V domains shown, CL2A-SN-38 conjugated to the DTT-reduced antibody; 7.5 SN38 per antibody; sites not stated, also called h23-12 labeled with SN38) VH: QVQLVQSGAEVKKPGASVKVSCKASGYTFTSYWMHWVRQAPGQGLEWMGEITPSDNYGSYNQKFKGRVTITRDTSTSTAYMELSSLRSEDTAVYYCARGHGNYVSFDYWGQGTLVTVSS VL: DIQMTQSPSSLSASVGDRVTITCRASQDISNYLNWYQQKPGKAPKLLIYYTSRLESGVPSRFSGSGSGTDFTLTISSLQPEDFATYFCQQGYTLPPYTFGQGTKLEIKR"
readout_label = "Kd"
units_of_measure = "nM"
recorded_measurement = 0.441


Next binder, please.
### Prompt What Kd value was documented for this binder, Sacituzumab-SN38 (antibody, human IgG1, kappa, V domains shown, CL2A-SN-38 conjugated to the DTT-reduced antibody; 7.5 SN38 per antibody; sites not stated, also called Sacituzumab labeled with SN38) VH: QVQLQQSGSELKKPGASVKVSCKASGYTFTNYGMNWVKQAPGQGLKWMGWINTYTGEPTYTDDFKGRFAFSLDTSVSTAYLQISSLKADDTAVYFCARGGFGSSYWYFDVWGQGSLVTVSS VL: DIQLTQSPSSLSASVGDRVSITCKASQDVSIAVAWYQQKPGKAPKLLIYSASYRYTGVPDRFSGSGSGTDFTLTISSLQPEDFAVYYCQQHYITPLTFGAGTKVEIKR ?
### Response 0.431
